assay: xn = mol fraction of the nth substance listed, in the solute-free solvent
testParameters: 318.15 K; x2 = 0.2068
Provide the recorded solubility (g/100 g solution) for the entries that follow.
In your answer, state the number alone without any accompanying words.

INPUT: For the molecule COC(=O)C1=C(C)NC(C)=C(C(=O)OCC(C)C)C1c1ccccc1[N+](=O)[O-] (centres undefined) + CCO + O , what solubility (g/100 g solution) is on record?
OUTPUT: 5.64

INPUT: Look up solubility (g/100 g solution) for this molecule: CS(=O)(=O)c1ccc(C(O)C(CF)NC(=O)C(Cl)Cl)cc1 (centres undefined) + CCO + O
OUTPUT: 3.18

INPUT: Looking for the measured solubility (g/100 g solution) of CC(=O)Nc1ccc(OC(=O)c2ccccc2OC(C)=O)cc1 + CCO + O , can you help?
OUTPUT: 0.366

INPUT: Which measured solubility (g/100 g solution) value corresponds to O=[N+]([O-])c1cc[nH]n1 + CCO + O ?
OUTPUT: 2.34

* * *

assay: xn = mol fraction of the nth substance listed, in the solute-free solvent
testParameters: 288.15 K; x2 = 0.3103
Consider the following compounds; for each one, report its solubility (g/100 g solution).

INPUT: For the compound CC(=O)Nc1ccc(OC(=O)c2ccccc2OC(C)=O)cc1 + CC(C)O + O , what solubility (g/100 g solution) is on record?
OUTPUT: 0.0897

INPUT: Requested read-out: solubility (g/100 g solution). Entry: O=[N+]([O-])c1cc[nH]n1 + CCCO + O
OUTPUT: 2.03

INPUT: I would be grateful if you could share the reported solubility (g/100 g solution) for CS(=O)(=O)c1ccc(C(O)C(CF)NC(=O)C(Cl)Cl)cc1 (stereo not given) + CC(C)O + O .
OUTPUT: 0.481

INPUT: So what does the record say about solubility (g/100 g solution) for COC(=O)C1=C(C)NC(C)=C(C(=O)OCC(C)C)C1c1ccccc1[N+](=O)[O-] (stereo not given) + CC(C)O + O ?
OUTPUT: 3.46

INPUT: Name the recorded solubility (g/100 g solution) for COC(=O)C1=C(C)NC(C)=C(C(=O)OCC(C)C)C1c1ccccc1[N+](=O)[O-] (stereo not given) + CCCO + O .
OUTPUT: 2.99

* * *

assay: xn = mol fraction of the nth substance listed, in the solute-free solvent
testParameters: 308.15 K; x2 = 0.5
resultType: solubility (g/100 g solution)

INPUT: Give its solubility (g/100 g solution) value. Item: CN1CCN(C(=O)OC2c3nccnc3C(=O)N2c2ccc(Cl)cn2)CC1 (centres undefined) + CC#N + O
OUTPUT: 3.4

INPUT: What value of solubility (g/100 g solution) has been recorded for this entry: O=c1ccc2ccccc2o1 + CO + O
OUTPUT: 28.4

INPUT: # query: solubility (g/100 g solution) of entry CCOC(=O)C1=CC2(CC)CCCN3CCc4c(n1c1ccccc41)C32 (centres undefined) + CCO + O
OUTPUT: 0.586

INPUT: // solubility (g/100 g solution) lookup, key: CCCCN1CCCCC1C(=O)Nc1c(C)cccc1C.Cl.O (centres undefined) + CCO + O
OUTPUT: 5.96

INPUT: Recorded solubility (g/100 g solution) for CC1(C)SC2C(NC(=O)C(NC(=O)N3CCNC3=O)c3ccccc3)C(=O)N2C1C(=O)O (centres undefined) + CCO + CC(C)O , please?
OUTPUT: 0.484

INPUT: solubility (g/100 g solution) lookup needed for CN1CCN(C(=O)OC2c3nccnc3C(=O)N2c2ccc(Cl)cn2)CC1 (centres undefined) + C1CCOC1 + O , thanks.
OUTPUT: 2.43

INPUT: Tell me the measured solubility (g/100 g solution) of CN1CCN(C(=O)OC2c3nccnc3C(=O)N2c2ccc(Cl)cn2)CC1 (centres undefined) + CCO + O , please.
OUTPUT: 1.02

INPUT: Any idea what solubility (g/100 g solution) was measured for CCCCN1CCCCC1C(=O)Nc1c(C)cccc1C.Cl.O (centres undefined) + CO + O ?
OUTPUT: 9.37

INPUT: For the compound CN1CCN(C(=O)OC2c3nccnc3C(=O)N2c2ccc(Cl)cn2)CC1 (centres undefined) + CC(C)=O + O , what solubility (g/100 g solution) is on record?
OUTPUT: 1.04

* * *

assay: xn = mol fraction of the nth substance listed, in the solute-free solvent
testParameters: 293.15 K; x2 = 0.4
Decision: solubility (g/100 g solution) compared against 3; not below it gives yes, below it gives no.

INPUT: Kindly determine if solubility (g/100 g solution) recorded for CC1(C)SC2C(NC(=O)C(NC(=O)N3CCNC3=O)c3ccccc3)C(=O)N2C1C(=O)O (centres undefined) + CO + CC(C)O is above or exactly 3.
OUTPUT: no

INPUT: Please indicate if the recorded solubility (g/100 g solution) for O=C(CC(=O)c1ccccc1)c1ccccc1 + CCO + O meets or exceeds 3.
OUTPUT: no

INPUT: Evaluate CCOC(=O)C1=CC2(CC)CCCN3CCc4c(n1c1ccccc41)C32 (centres undefined) + CCO + O : solubility (g/100 g solution) at minimum 3?
OUTPUT: no

INPUT: Can CCCCN1CCCCC1C(=O)Nc1c(C)cccc1C.Cl.O (centres undefined) + CO + O be said to have solubility (g/100 g solution) at or above 3?
OUTPUT: yes

INPUT: Given CCCCN1CCCCC1C(=O)Nc1c(C)cccc1C.Cl.O (centres undefined) + CCO + O , state whether its solubility (g/100 g solution) is at least 3.
OUTPUT: no

INPUT: Determine whether measured solubility (g/100 g solution) meets or exceeds 3 for O=c1ccc2ccccc2o1 + CC(C)=O + O
OUTPUT: yes

INPUT: solubility (g/100 g solution) >= 3 for O=C(CC(=O)c1ccccc1)c1ccccc1 + CO + O ?
OUTPUT: no

INPUT: Hi team, for O=C(CC(=O)c1ccccc1)c1ccccc1 + CC(C)O + O , is the recorded solubility (g/100 g solution) at or above 3?
OUTPUT: no

INPUT: Hi team, for O=c1ccc2ccccc2o1 + CO + O , is the recorded solubility (g/100 g solution) at or above 3?
OUTPUT: yes

* * *

For each record, write down the corresponding solubility (g/100 g solution).
assay: xn = mol fraction of the nth substance listed, in the solute-free solvent
testParameters: 303.15 K; x2 = 0.4117

INPUT: Please report the recorded solubility (g/100 g solution) for CC(=O)Nc1ccc(OC(=O)c2ccccc2OC(C)=O)cc1 + CC(C)O + O .
OUTPUT: 0.26

INPUT: Given the entry O=[N+]([O-])c1cc[nH]n1 + CCCO + O , report its measured solubility (g/100 g solution).
OUTPUT: 3.87

INPUT: Quick check: solubility (g/100 g solution) of CS(=O)(=O)c1ccc(C(O)C(CF)NC(=O)C(Cl)Cl)cc1 (centres undefined) + CC(C)O + O ?
OUTPUT: 1.14

INPUT: Which solubility (g/100 g solution) reading was recorded for the molecule COC(=O)C1=C(C)NC(C)=C(C(=O)OCC(C)C)C1c1ccccc1[N+](=O)[O-] (centres undefined) + CCCO + O ?
OUTPUT: 5.73

* * *

assay: xn = mol fraction of the nth substance listed, in the solute-free solvent
testParameters: 298.15 K; x2 = 0.3103
Give condition met when the value for solubility (g/100 g solution) is at least 3. Give condition not met when it is less.

INPUT: Threshold query (solubility (g/100 g solution) >= 3) on O=[N+]([O-])c1cc[nH]n1 + CCCO + O
OUTPUT: condition not met

INPUT: I'd appreciate it if you could say whether CC(=O)Nc1ccc(OC(=O)c2ccccc2OC(C)=O)cc1 + CC(C)O + O has solubility (g/100 g solution) at least equal to 3.
OUTPUT: condition not met

INPUT: Reported solubility (g/100 g solution) reaches at least 3 for COC(=O)C1=C(C)NC(C)=C(C(=O)OCC(C)C)C1c1ccccc1[N+](=O)[O-] (stereo not given) + CC(C)O + O ?
OUTPUT: condition met

INPUT: Test whether the molecule COC(=O)C1=C(C)NC(C)=C(C(=O)OCC(C)C)C1c1ccccc1[N+](=O)[O-] (stereo not given) + CCCO + O records solubility (g/100 g solution) of 3 or higher.
OUTPUT: condition met

INPUT: Is solubility (g/100 g solution) for CS(=O)(=O)c1ccc(C(O)C(CF)NC(=O)C(Cl)Cl)cc1 (stereo not given) + CC(C)O + O at or above 3?
OUTPUT: condition not met

* * *

assay: xn = mol fraction of the nth substance listed, in the solute-free solvent
testParameters: 318.15 K; x2 = 0.03225
resultType: solubility (g/100 g solution)
A bare number is all that is needed in reply.

INPUT: Entry O=[N+]([O-])c1cc[nH]n1 + CCCO + O has what solubility (g/100 g solution)?
OUTPUT: 1.86

INPUT: Given the molecule CS(=O)(=O)c1ccc(C(O)C(CF)NC(=O)C(Cl)Cl)cc1 (centres undefined) + CC(C)O + O , what is its reported solubility (g/100 g solution)?
OUTPUT: 0.641

INPUT: Given COC(=O)C1=C(C)NC(C)=C(C(=O)OCC(C)C)C1c1ccccc1[N+](=O)[O-] (centres undefined) + CCCO + O , state its recorded solubility (g/100 g solution).
OUTPUT: 0.78

INPUT: What does the data say about its solubility (g/100 g solution)? Entry: CC(=O)Nc1ccc(OC(=O)c2ccccc2OC(C)=O)cc1 + CC(C)O + O
OUTPUT: 0.0399
